# EXPERIMENTAL SYSTEM: T1, human LAG3 expressed on cells (human, UniProt P18627 23-525)
# T1 sequence (looked up): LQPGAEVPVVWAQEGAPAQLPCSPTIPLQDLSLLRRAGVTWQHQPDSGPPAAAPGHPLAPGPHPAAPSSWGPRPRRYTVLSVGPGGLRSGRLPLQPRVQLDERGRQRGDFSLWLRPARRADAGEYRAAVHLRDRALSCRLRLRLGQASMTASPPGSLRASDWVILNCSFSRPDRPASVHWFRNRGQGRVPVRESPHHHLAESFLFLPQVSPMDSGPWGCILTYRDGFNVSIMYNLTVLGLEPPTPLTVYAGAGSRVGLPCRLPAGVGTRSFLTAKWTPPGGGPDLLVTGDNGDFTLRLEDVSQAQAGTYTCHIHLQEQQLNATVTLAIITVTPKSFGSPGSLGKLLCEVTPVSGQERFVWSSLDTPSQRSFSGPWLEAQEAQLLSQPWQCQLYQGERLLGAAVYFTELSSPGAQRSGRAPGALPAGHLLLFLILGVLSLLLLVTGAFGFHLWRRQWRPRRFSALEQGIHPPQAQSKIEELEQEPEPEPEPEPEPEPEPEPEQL
# ASSAY NAME: cell-based or functional assay

{"columns": ["BINDER", "Efficacy (IL-2 production, BMS = 100%)"],
 "data": [
  ["sdAb No. 17 (VHH, Fc of the tested form not described; also called sdAb 17; not shown: Fc part implied by anti-human Fc capture and anti-human IgG1 Fc detection) VHH: QLQLVESGGGLVQPGGSLRLSCAASGLTLDGYAIGWFRQAPGKEREGLACISGSDGSTHYLDSVKGRFTISRDNGKNTMALQMNSLQFGDTAIYYCAARRGSCSGSWTYWGQGTQVTVSS", 46.5],
  ["sdAb No. 21 (VHH, Fc of the tested form not described; also called sdAb 21; not shown: Fc part implied by anti-human Fc capture) VHH: QLQLVESGGGLVQPGGSLRLSCAASGLTLDGYAIAWFRQAPGKEREGLSCISGTDGSTHYLDSVKGRFTISRDNGKNTMALQMNSLQFGDTAIYYCAARRGSCSGSWTYWGQGTQITVSS", 31]
]}
